Values from patent US10793591B2

system: Huh-7 cells containing the self-replicating, subgenomic HCV replicon; experiment: HCV replicon assay (luciferase reporter); format: cell-based; settings: Hepatitis C virus, Huh-7, 72 h
Entries and their measured EC50 follow.

// EC50 lookup, key: C#C[C@]1(O)[C@H](n2ccc(=O)[nH]c2=O)O[C@](F)(COP(=O)(N[C@@H](C)C(=O)OC2CCCCC2)Oc2ccccc2)[C@H]1O (stereo partly drawn) [Compound 22]
< 1000 nM

* * *

system: Huh-7 cells containing the self-replicating, subgenomic HCV replicon; experiment: HCV replicon assay (luciferase reporter); format: cell-based; conditions: Hepatitis C virus, Huh-7, 72 h
Entries and their measured EC50 follow.

// known answers, use as guide
molecule	target entity	EC50
CC(C)OC(=O)C(C)N[P@](=O)(OC[C@@]1(F)O[C@@H](n2ccc(=O)[nH]c2=O)[C@](C)(O)[C@@H]1O)Oc1ccccc1 (stereo partly drawn)	Huh-7 cells containing the self-replicating, subgenomic HCV replicon	< 1000 nM
CC(C)OC(=O)[C@H](C)NP(=O)(N[C@@H](C)C(=O)OC(C)C)OC[C@@]1(F)O[C@@H](n2ccc(=O)[nH]c2=O)[C@](C)(O)[C@@H]1O	Huh-7 cells containing the self-replicating, subgenomic HCV replicon	1000 to 10000 nM

Now for a further molecule.
// EC50 lookup, key: CC(N[P@](=O)(OC[C@@]1(F)O[C@@H](n2ccc(=O)[nH]c2=O)[C@](C)(O)[C@@H]1O)Oc1ccccc1)C(=O)OC1CCCCC1 (stereo partly drawn)
< 1000 nM
